- SYSTEM NAME: P70S6K (T412E mutant) (Homo sapiens (Human), UniProt P23443, T412E)
- Sequence (P23443 whole entry T412E): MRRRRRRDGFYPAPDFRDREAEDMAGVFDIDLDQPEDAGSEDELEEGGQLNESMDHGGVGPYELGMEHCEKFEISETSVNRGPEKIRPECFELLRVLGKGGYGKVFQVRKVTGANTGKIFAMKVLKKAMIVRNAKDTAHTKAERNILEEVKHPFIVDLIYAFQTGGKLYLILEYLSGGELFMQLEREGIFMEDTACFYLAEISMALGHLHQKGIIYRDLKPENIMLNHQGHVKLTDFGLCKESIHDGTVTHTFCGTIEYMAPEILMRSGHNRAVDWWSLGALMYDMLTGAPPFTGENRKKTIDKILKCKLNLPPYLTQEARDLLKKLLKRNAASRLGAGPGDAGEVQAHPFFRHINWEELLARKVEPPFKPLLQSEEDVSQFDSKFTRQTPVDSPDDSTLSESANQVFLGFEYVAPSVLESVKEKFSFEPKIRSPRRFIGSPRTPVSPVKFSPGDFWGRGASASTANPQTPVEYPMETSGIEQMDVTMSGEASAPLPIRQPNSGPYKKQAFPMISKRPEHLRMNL
- RUN DESCRIPTION: P70S6K enzyme assay
- Format: biochemical
- TEST CONDITIONS: read-out: IC50 p70S6K
VALUE KIND: IC50 (nM)

// solved cases for IC50 follow
[
  {
    "MOLECULE": "N#Cc1c(N)ncnc1N1CCC(c2nc(-c3ccc(F)c(C(F)(F)F)c3)cn2CCNC2CCCC2)CC1",
    "UNITS SYMBOL": "nM",
    "IC50": 1.1
  },
  {
    "MOLECULE": "N#Cc1c(N)ncnc1N1CCC(c2nc(-c3ccsc3)cn2CCN2CCC2)CC1",
    "UNITS SYMBOL": "nM",
    "IC50": 2.6
  },
  {
    "MOLECULE": "Nc1ncnc(N2CCC(c3nc(-c4ccc(F)c(C(F)(F)F)c4)cn3CCN3CCCC3)CC2)c1-c1ccc(C(=O)O)cc1",
    "UNITS SYMBOL": "nM",
    "IC50": 5.8
  }
]

I: CCc1c(N)ncnc1N1CCC(c2nc(-c3ccc(F)c(C(F)(F)F)c3)cn2CCN2CCCC2)CC1
II: Nc1ncnc(N2CCC(c3nc(-c4cccc(C(F)(F)F)c4)cn3CCN3CCCC3)CC2)c1Br
[in] IC50 comparison. Which is larger, I or II ? Let me know the label of the one you choose.
[out] I
(I: 3.2 nM, II: 2.2 nM)

P: CCc1c(N)ncnc1N1CCC(c2nc(-c3ccc(OC)c(C(N)=O)c3)cn2CCN2CCC2)CC1
Q: CCc1c(N)ncnc1N1CCC(c2nc(-c3ccc(F)c(Cl)c3)cn2CCN2CCCC2)CC1
[in] Please indicate which item has the smaller measured IC50: P versus Q Bench note: the answer is the label of the chosen record.
[out] Q

I: Nc1ncnc(N2CCC(c3nc(-c4ccc(F)c(C(F)(F)F)c4)cn3CCN3CCCC3)CC2)c1Br
II: N#Cc1c(N)ncnc1N1CCC(c2nc(-c3ccc(F)c(C(F)(F)F)c3)cn2CCNCC2CC2)CC1
[in] Dear colleague, could you let me know whether I or II has the lower recorded IC50? Thanks. Refer to your chosen entry by its label in the reply.
[out] II
(II: 1.1 nM, I: 3.5 nM)
